Measured pIC50 by item
Test system: detrusor muscle
Assay: Test Example 1: relaxation of guinea pig bladder strips contracted with 50 mM KCl
Type: cell-based, guinea pig (male albino Hartley)
Conditions: Cavia porcellus; contraction induced by 50 mM KCl; concentration decreasing detrusor contraction by 50%
Please treat pIC50 as minus the base-10 logarithm of the molar concentration.

Sample records with pIC50:
Cc1ccc(NC(=O)C(C)(O)C(F)(F)F)c2c1OCc1ccccc1C2=O (centres unmarked)
5.38
Cc1ccc(NC(=O)C(C)(O)C(F)(F)F)c2c1OCc1ccsc1C2=O (centres unmarked)
5.15
CC(O)(C(=O)Nc1cc2c(cc1Cl)-c1ccccc1C2=O)C(F)(F)F (centres unmarked)
5.70

Pending compound:
Please indicate pIC50 recorded for CC(O)(C(=O)Nc1ccc2c(=O)c3sccc3ccc2c1)C(F)(F)F (centres unmarked) 5.34
